Molecular target: IMP-1 (Serratia marcescens)
Test: biochemical
Assay type: biochemical
Conditions: IMP-1 enzyme, CCF2-FA fluorescence assay; read-out: IMP-1 IC50
Provide the recorded pIC50 for the entries that follow.
Numbers only, as −log10 of the molar value.

Below, each entry is followed by its recorded pIC50 result.
>  <COMPOUND>
NS(=O)(=O)c1c(C(F)(F)F)ccc(C2CCCC2)c1-c1nnn[nH]1

>  <pIC50>
8.25

$$$$
>  <COMPOUND>
Nc1ccc(-c2ccc(C(F)(F)F)c(S(N)(=O)=O)c2-c2nn[nH]n2)cn1

>  <pIC50>
8.16

$$$$
>  <COMPOUND>
Cc1ccc(-c2ccc(C(F)(F)F)c(S(N)(=O)=O)c2-c2nn[nH]n2)cc1

>  <pIC50>
8.79

$$$$

// each listed compound needs a value for pIC50
1. Cc1ccc(-c2cc(-c3ccc4c(c3)CNC4)cc(S(N)(=O)=O)c2-c2nn[nH]n2)cc1
2. CC(O)C1CCN(Cc2ccc(-c3cccc(S(N)(=O)=O)c3-c3nnn[nH]3)cc2)C1 (centres unmarked)
3. NS(=O)(=O)c1c(C(F)(F)F)ccc(N2CCC(c3ccc(CO)cc3)CC2)c1-c1nn[nH]n1

[7.53, 6.48, 8.89]

Record pIC50 for all entries; do not skip any.
1. COc1nc2cc(Cl)c(-c3cccc(S(N)(=O)=O)c3-c3nn[nH]n3)cc2[nH]1
2. NS(=O)(=O)c1c(CC(F)(F)F)ccc(-c2ccc(C3CCNCC3)cc2)c1-c1nn[nH]n1

[5.66, 8.62]

====

Please respond with reported IC50 for every item in the list.
Target: IMP-1 (Serratia marcescens, UniProt P52699)
Sequence (P52699 whole entry, looked up): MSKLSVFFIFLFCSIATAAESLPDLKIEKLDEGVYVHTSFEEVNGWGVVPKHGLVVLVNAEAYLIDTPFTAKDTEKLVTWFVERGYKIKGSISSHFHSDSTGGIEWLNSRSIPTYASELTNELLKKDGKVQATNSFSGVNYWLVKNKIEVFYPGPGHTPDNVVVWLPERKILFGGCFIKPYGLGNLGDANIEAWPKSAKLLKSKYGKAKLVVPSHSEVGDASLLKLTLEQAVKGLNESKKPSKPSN
Test: biochemical
Type: biochemical
Settings: IMP-1 enzyme, CCF2-FA substrate; read-out: IMP-1 IC50
One number for each entry, in nM.

Worked examples, 3 molecules total:
>  <MOLECULE>
NC(=O)C1CCCN(c2ccc(C(F)(F)F)c(S(N)(=O)=O)c2-c2nnn[nH]2)C1 (stereo not shown)

>  <IC50 [nM]>
37.1

$$$$
>  <MOLECULE>
Nc1nc2c(-c3ccc(CCO)c(S(N)(=O)=O)c3-c3nn[nH]n3)cccc2s1

>  <IC50 [nM]>
32.1

$$$$
>  <MOLECULE>
NS(=O)(=O)c1c(CC2CNC2)ccc(-c2cnc3ccccn23)c1-c1nn[nH]n1

>  <IC50 [nM]>
178

$$$$

Output measured IC50 for this item: `NS(=O)(=O)c1c(C(F)(F)F)ccc([C@H]2CC[C@@H](C3=NCCN3)CC2)c1-c1nnn[nH]1` 22.2

====

Biological target: IMP-1 (Serratia marcescens, UniProt P52699)
Assay: biochemical
Assay type: biochemical
Details: IMP-1 enzyme, CCF2-FA fluorescence assay; read-out: IMP-1 IC50
Please provide measured pIC50 for the entries that follow.
Give bare numbers, as −log10 of the molar value.

>  <COMPOUND>
NC1CCC(Cc2ccc(-c3ccc(C4CCNCC4)cc3)c(-c3nn[nH]n3)c2S(N)(=O)=O)CC1 (centres unmarked) [Example 455]

>  <pIC50>
8.20

$$$$
>  <COMPOUND>
NS(=O)(=O)c1c(Br)ccc(-c2ccnc3ccccc23)c1-c1nn[nH]n1

>  <pIC50>
7.90

$$$$
>  <COMPOUND>
NS(=O)(=O)c1cc(Cl)cc(-c2ccc3c(c2)C(=O)NC3)c1-c1nn[nH]n1

>  <pIC50>
6.92

$$$$

Could you report pIC50 for every entry in the following list?
1. Nc1ncc2ccc(-c3cccc(S(N)(=O)=O)c3-c3nnn[nH]3)cc2n1
2. NS(=O)(=O)c1cccc(-c2cnc3cc[nH]c3c2)c1-c1nn[nH]n1
3. NC1(c2ccc(-c3ccc(C(F)(F)F)c(S(N)(=O)=O)c3-c3nn[nH]n3)cc2)CCNCC1
4. NC1CCC(Cc2ccc(-c3ccc(C4CCNCC4)cc3)c(-c3nn[nH]n3)c2S(N)(=O)=O)CC1 (centres unmarked) [Example 463]
5. Nc1ncc(-c2cccc(S(N)(=O)=O)c2-c2nn[nH]n2)cc1F

1: 6.66; 2: 6.38; 3: 7.89; 4: 8.18; 5: 6.54
